assay: Cell viability analysis, Trypan blue staining, Jurkat cells; assay type: cell-based, human; details: human, Jurkat cells, 72 h, 0–30 μM
parameter measured: CC50 at 72 h

# input compound: Cc1cn([C@H]2C[C@H](N=[N+]=[N-])[C@@H](CO)O2)c(=O)[nH]c1=O [AZT, 3′-Azido-2′,3′-dideoxythymidine, reference compound] ; wanted: its CC50 at 72 h > 30 µM

----------
assay: Cell viability analysis, Trypan blue staining, Jurkat cells; type: cell-based, human; conditions: human, 72 h, 0–30 μM
parameter measured: CC50 at 72 h

Some entries whose results are on file:
[[record]]
smi = "CC1(C)O[C@@H]2[C@H](O1)[C@@H](CO)O[C@H]2n1cc(F)c(=O)[nH]c1=O"
parameter_measured = "CC50 at 72 h"
assay_result = "7.9 µM"

[[record]]
smi = "CC1(C)O[C@@H]2[C@H](O1)[C@@H](CO)O[C@H]2n1ccc(=O)[nH]c1=O"
parameter_measured = "CC50 at 72 h"
assay_result = "> 30 µM"

[[record]]
smi = "CC1(C)O[C@@H]2[C@H](O1)[C@@H](CO)O[C@H]2n1cc(Cl)c(=O)[nH]c1=O"
parameter_measured = "CC50 at 72 h"
assay_result = "> 30 µM"

[[record]]
smi = "Cc1cn([C@@H]2O[C@H](CO)[C@H]3OC(C)(C)O[C@H]32)c(=O)[nH]c1=O"
parameter_measured = "CC50 at 72 h"
assay_result = "> 30 µM"

[[record]]
smi = "CC1(C)O[C@@H]2[C@H](O1)[C@@H](CO)O[C@H]2n1cc(I)c(=O)[nH]c1=O"
parameter_measured = "CC50 at 72 h"
assay_result = "> 30 µM"


Next compound, CC50 at 72 h to be filled in.
I'd like to know its CC50 at 72 h. The compound in question is CC1(C)O[C@@H]2[C@H](O1)[C@@H](CO)O[C@H]2n1cc(Br)c(=O)[nH]c1=O > 30 µM
